OD450 listing for selected binders.
target: T1, human MSLN-R3-3 polypeptide (human); assay: ELISA, coated antigen, antibody 1 nM
T1 construct: Part of region R3 of human MSLN; also called hMSLN-R3-3; human MSLN-R3-3 protein
Would you mind answering with just the numeric figure?

binder: S009-F4-127.10 chimeric antibody (antibody, human IgG1, kappa, V domains shown, Human-murine chimeric antibody, human IgG1/kappa constant regions) VH: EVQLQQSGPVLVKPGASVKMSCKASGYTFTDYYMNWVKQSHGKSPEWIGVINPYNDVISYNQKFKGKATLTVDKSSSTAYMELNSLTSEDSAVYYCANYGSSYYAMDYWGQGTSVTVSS VL: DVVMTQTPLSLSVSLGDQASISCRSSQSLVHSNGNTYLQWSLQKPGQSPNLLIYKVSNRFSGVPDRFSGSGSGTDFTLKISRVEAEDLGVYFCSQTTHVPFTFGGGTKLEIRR
OD450: 0.05
//
binder: S009-F4-94.15 chimeric antibody (antibody, human IgG1, kappa, V domains shown, Human-murine chimeric antibody: murine VH/VL on human IgG1 heavy and kappa light constant regions) VH: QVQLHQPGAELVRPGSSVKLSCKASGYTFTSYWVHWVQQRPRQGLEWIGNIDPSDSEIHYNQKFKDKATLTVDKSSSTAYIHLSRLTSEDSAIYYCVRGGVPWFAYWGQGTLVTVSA VL: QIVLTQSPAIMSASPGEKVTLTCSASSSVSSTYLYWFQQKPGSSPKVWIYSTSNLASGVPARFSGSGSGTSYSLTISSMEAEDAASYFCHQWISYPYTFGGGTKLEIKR
OD450: 0.05
//
binder: S009-F5-9.16 chimeric antibody (antibody, human IgG1, kappa, V domains shown, Human-murine chimeric antibody, human IgG1/kappa constant regions) VH: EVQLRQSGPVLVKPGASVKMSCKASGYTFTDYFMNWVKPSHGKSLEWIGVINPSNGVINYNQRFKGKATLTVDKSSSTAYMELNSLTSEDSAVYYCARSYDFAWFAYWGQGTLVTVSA VL: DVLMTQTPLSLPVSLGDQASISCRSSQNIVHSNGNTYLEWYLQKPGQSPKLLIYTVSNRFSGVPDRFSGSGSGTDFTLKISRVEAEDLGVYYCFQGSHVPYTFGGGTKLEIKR
OD450: 0.13
//
binder: S009-F6-62.5 chimeric antibody (antibody, human IgG1, kappa, V domains shown, Human-murine chimeric antibody, human IgG1/kappa constant regions) VH: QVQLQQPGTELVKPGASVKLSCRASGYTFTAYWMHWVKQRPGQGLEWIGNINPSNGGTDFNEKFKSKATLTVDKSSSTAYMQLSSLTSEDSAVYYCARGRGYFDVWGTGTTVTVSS VL: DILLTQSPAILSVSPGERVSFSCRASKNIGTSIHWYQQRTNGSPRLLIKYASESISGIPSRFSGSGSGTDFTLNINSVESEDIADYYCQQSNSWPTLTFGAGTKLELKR
OD450: 0.05

Query: OD450; subject: S009-F6-76.1 chimeric antibody (antibody, human IgG1, kappa, V domains shown, Human-murine chimeric antibody, human IgG1/kappa constant regions) VH: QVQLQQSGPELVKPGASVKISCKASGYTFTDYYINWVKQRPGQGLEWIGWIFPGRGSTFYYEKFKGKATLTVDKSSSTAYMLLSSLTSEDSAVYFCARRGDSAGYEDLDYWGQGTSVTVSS VL: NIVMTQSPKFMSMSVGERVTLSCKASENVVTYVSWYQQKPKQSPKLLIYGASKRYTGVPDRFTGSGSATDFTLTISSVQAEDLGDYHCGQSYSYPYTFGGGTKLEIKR 0.04
